Experiment: folding stability dG unfold from chymotrypsin proteolysis; higher = more stable
Assignment: determine reported folding stability dG unfold for the given sequences.
Please provide the amount together with its unit, number first.

{"columns": ["biopolymer sequence", "assay result"],
 "data": [
  ["SAGPITITYDEETGTLTITATVAPGEEVTFKLTFVDEETGVVVTEVEETVTVKEGDTVTITVKVEKLPPSAG [r5_737_TrROS_Hall]", "3.69 kcal/mol"],
  ["SGPTSITFPDGSSASISLSPDSFTITITLPGSSATSTYDPATGTTTITLTFSSSTVTLTLDPATGTLTVGSA [r9_207_JUSTAS]", "5.01 kcal/mol"],
  ["SAGGSAMTTTTSTDPATNKTYVTVTFPKDEALVEEVKEELKKKGIKEIKVYEFPENDLVRVEITVGSAGGSA [r2_358_JUSTAS]", "0.767 kcal/mol"]
]}

The record that follows has no folding stability dG unfold shown yet.
Which folding stability dG unfold value belongs to SAGGSAGGSAGSITFTVPASEFTEEEILERLVEELGIPREKVDLVEIKETPDGKLKVTIKIPSAGGSAGGSA [r18_118_JUSTAS] ? 2.49 kcal/mol
